# SYSTEM UNDER TEST: Ylr278c (UniProt Q05854)
# Sequence (Q05854 whole entry): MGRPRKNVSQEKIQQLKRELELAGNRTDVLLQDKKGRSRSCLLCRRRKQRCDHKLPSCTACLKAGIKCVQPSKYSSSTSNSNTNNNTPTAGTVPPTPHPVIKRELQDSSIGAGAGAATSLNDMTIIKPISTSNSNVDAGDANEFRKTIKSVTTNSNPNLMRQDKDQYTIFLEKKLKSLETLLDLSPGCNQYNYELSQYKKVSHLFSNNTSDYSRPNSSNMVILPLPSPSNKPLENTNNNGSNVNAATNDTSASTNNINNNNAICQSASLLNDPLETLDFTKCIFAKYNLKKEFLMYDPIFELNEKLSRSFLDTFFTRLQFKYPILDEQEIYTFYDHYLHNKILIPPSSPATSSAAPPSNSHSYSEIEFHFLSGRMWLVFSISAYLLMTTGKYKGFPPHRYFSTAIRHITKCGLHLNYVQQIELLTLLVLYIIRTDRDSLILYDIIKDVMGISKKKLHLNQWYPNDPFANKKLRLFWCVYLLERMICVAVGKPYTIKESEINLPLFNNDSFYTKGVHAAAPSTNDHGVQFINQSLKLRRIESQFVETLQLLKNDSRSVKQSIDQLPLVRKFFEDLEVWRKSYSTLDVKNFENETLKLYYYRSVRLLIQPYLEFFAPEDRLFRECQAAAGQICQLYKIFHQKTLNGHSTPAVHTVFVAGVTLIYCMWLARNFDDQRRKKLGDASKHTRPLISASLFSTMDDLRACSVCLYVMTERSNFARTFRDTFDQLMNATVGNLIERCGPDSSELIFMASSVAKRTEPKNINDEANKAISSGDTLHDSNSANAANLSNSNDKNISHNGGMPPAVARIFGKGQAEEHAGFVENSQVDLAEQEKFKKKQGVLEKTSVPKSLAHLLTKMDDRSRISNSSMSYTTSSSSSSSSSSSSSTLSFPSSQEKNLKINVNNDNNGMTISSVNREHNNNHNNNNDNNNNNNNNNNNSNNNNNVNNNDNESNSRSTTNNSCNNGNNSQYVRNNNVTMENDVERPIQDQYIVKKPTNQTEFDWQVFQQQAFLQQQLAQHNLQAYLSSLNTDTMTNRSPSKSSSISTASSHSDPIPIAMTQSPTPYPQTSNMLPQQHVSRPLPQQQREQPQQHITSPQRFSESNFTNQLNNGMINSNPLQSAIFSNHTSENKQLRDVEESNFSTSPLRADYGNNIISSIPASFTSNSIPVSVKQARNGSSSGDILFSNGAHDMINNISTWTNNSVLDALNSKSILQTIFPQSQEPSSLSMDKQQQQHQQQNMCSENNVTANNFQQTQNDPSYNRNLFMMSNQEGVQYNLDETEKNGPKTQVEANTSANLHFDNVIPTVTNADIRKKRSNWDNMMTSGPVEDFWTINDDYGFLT
# ASSAY DETAILS: PBM E-score (8-mer binding enrichment) (E-score (-0.5 to 0.5)); higher = stronger / more preferred TF binding
# RECORDED CONDITIONS: protein concentration: 200 nM; construct: GST-DNA-binding domain
The full ranking holds about 33,000 sequences; the median of “E-score (-0.5 to 0.5)” is about -0.054, and the highest 2% start at about 0.39. This is one part of a sample in which the highest values are shown more often than they occur.
Would you please tag the item fulfilled when its PBM E-score is 0.4 or above, and not fulfilled when it is below?

Does the reported PBM E-score for CGAAAGGC fall at or above the 0.4 mark?
not fulfilled

Does the reported PBM E-score for ACTACTCG fall at or above the 0.4 mark?
not fulfilled

Does the reported PBM E-score for GACCGGAC fall at or above the 0.4 mark?
not fulfilled

Does the reported PBM E-score for AGGACAAC fall at or above the 0.4 mark?
not fulfilled

Does the reported PBM E-score for CACCGGAG fall at or above the 0.4 mark?
fulfilled

Does the reported PBM E-score for CACCCGGA fall at or above the 0.4 mark?
not fulfilled

Does the reported PBM E-score for AACCCGGA fall at or above the 0.4 mark?
fulfilled

Does the reported PBM E-score for TACCCGAA fall at or above the 0.4 mark?
not fulfilled

Does the reported PBM E-score for GGATGGGA fall at or above the 0.4 mark?
not fulfilled

Does the reported PBM E-score for AAGCTATG fall at or above the 0.4 mark?
not fulfilled
